- experimental details: Multiple dose trial with rotating patch application sites in early-stage Parkinson's disease: rotigotine pharmacokinetics (Example 4)
- assay setup: human, in vivo, 18 mg/day, rotigotine plasma concentration Median, Shoulder, Days 27 & 30 Combined, 23.5 H
- Excerpt: Each day, a fresh patch was placed on a new skin site (abdomen, flank, upper arm, shoulder, thigh, hip) in a rotating order. The silicone transdermal patches were made in accordance with the teachings of U.S. Patent Application Publication No. US 2003/0026830 at paragraphs 38-42, U.S. Patent Application Publication No. US 2003/0027793 at paragraphs 37-41 and U.S. Pat. No. 6,884,434, columns 5-6, Example 2 and comprised the following layers and components: […]

>  <smiles string>
CCCN(CCc1cccs1)[C@H]1CCc2c(O)cccc2C1

>  <unit abbreviation>
ng/mL

>  <concentration at […]>
0.799

$$$$
